Origin of values: patent US20080234262A1

Tested on: breast line MDA468
Assay: In vitro cell culture growth assay (MTS), MDA468
Type: cell-based, human
Conditions: Homo sapiens, 72 h, MDA468 cells, three days after drug treatment
MEASURED METRIC: IC50 (nM)
Could you give me the number in nM? Just the number is fine.

Query block: What measured IC50 goes with O=C(Nc1ccccc1)Nc1ccc(-c2nc(N3CCOCC3)c3cnn(C4CCN(Cc5ccccc5)CC4)c3n2)cc1 [Example 257] ?
Result block: 1100

Query block: Would you mind telling me what IC50 value was observed for CNCCNC(=O)Nc1ccc(-c2nc(N3CCOCC3)c3cnn(C4CCN(Cc5cccnc5)CC4)c3n2)cc1 [Compound 589] ?
Result block: 1100

Query block: Bench note: what IC50 did CCNC(=O)Nc1ccc(-c2nc(N3CCOCC3)c3cnn(C4CCN(Cc5ccccc5)CC4)c3n2)cc1 [Compound 499] show?
Result block: 350

Query block: Given the entry CNC(=O)Nc1ccc(-c2nc(N3CCOCC3)c3cnn([C@@H]4CCCN(C(=O)OC(C)(C)C)C4)c3n2)cc1 , report its measured IC50.
Result block: 1100

Query block: Item under review: CNC(=O)Nc1cccc(-c2nc(N3CCOCC3)c3cnn(C4CCN(Cc5ccccc5)CC4)c3n2)c1 [Compound 482] . Reported IC50?
Result block: 6800

Query block: What IC50 value was documented for this compound, O=CN1CCC(n2ncc3c(N4CCOCC4)nc(-c4ccc5[nH]ccc5c4)nc32)CC1 [Compound 518] ?
Result block: 3000

###

Molecular target: PI3K (Homo sapiens, UniProt P42336)
Sequence (P42336 whole entry): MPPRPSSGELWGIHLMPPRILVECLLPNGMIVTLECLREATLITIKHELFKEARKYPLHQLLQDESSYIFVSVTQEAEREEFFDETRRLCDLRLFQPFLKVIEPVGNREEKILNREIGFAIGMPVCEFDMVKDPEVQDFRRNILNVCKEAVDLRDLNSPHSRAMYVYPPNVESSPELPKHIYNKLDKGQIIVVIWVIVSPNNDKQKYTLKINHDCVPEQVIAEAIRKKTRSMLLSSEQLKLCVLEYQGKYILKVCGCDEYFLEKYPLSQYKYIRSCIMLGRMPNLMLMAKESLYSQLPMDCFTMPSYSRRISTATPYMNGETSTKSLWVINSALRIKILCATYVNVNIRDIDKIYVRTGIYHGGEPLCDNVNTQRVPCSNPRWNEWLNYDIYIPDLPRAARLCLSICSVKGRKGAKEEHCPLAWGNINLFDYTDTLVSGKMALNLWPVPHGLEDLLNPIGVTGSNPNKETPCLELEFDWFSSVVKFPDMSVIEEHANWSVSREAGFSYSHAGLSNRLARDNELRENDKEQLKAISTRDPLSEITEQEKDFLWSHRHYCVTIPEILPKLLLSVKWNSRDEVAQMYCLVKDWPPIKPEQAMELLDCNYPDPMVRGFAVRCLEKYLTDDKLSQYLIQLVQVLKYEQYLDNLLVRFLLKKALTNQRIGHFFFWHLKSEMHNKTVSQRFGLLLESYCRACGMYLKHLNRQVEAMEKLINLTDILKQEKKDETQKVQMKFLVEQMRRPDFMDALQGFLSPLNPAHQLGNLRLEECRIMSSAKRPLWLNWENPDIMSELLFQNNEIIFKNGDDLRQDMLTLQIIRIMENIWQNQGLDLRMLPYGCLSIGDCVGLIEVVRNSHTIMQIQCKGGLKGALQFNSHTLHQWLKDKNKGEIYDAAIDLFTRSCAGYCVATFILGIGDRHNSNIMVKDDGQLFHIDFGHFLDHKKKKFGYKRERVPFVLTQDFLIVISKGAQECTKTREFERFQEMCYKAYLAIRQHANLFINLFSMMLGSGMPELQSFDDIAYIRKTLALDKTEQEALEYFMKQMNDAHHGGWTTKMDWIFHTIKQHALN
Sequence (P27986 whole entry partner): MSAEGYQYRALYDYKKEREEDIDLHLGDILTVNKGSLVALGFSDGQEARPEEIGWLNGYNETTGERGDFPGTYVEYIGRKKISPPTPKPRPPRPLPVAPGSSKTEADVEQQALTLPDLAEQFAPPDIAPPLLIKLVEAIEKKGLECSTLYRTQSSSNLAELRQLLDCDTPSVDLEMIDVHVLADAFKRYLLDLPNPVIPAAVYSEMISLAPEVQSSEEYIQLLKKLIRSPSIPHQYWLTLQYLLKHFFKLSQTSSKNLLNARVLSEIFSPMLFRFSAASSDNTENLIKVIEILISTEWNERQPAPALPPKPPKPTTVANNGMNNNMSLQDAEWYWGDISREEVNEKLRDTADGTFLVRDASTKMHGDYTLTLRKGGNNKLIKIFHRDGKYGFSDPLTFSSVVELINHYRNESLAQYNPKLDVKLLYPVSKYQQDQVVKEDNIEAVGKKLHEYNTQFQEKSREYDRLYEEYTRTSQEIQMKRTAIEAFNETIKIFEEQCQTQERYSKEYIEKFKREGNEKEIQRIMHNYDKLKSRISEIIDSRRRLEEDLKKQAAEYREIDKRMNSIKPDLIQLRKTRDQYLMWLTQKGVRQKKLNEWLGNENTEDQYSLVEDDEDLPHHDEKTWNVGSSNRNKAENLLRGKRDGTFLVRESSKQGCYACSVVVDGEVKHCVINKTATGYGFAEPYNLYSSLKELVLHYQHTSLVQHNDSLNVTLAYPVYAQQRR
Test: Fluorescence polarization assay for PI3K
Type: biochemical
Conditions: PI3Kα; read-out: PI3Kα IC50
Returns: string. Value is True if measured IC50 is below 80 nM, and False if it is greater than or equal to it.

Query block: Please state whether IC50 is below 80 nM for COC(=O)Nc1ccc(-c2nc(N3CCOCC3)c3cnn(C4CCCCO4)c3n2)cc1 (stereo not drawn) [Compound 274]
Result block: False

Query block: Is 80 nM strictly greater than the compound's reported IC50? compound: O=C(c1ccc[n+]([O-])c1)N1CCC(n2ncc3c(N4CCOCC4)nc(-c4ccc5[nH]ccc5c4)nc32)CC1 [Compound 197]
Result block: False

Query block: Is 80 nM strictly greater than the compound's reported IC50? compound: O=C(NCCF)Nc1ccc(-c2nc(N3CCOCC3)c3cnn(C4CCN(C(=O)c5cccnc5)CC4)c3n2)c(F)c1 [Compound 707]
Result block: False

Query block: # strict comparison: is reported IC50 < 80 nM? input = Cc1ncccc1C(=O)N1CCC(n2ncc3c(N4CCOCC4)nc(-c4ccc5[nH]ccc5c4)nc32)CC1 [Example 200]
Result block: False

Query block: Please state whether IC50 is below 80 nM for CNC(=O)Nc1ccc(-c2nc(N3CCOCC3)c3cnn(C4CCN(CC#N)CC4)c3n2)cc1 [Compound 793]
Result block: True

Query block: Hello, I'm reviewing records and need to know if IC50 of O=C(Nc1ccc(-c2nc(N3CCOCC3)c3cnn(C4CCNCC4)c3n2)cc1)Nc1cccnc1 [Compound 779] is below 80 nM. Could you check?
Result block: True

Query block: Given the entry O=C(NO)Nc1ccc(-c2nc(N3CCOCC3)c3cnn(C4CCN(C(=O)c5cccnc5)CC4)c3n2)cc1 [Example 305] , would its reported IC50 be below 80 nM?
Result block: False

Query block: Item CNC(=O)Nc1ccc(-c2nc(N3CCOCC3)c3cnn(C4CCN(C(=O)c5cccnc5Cl)CC4)c3n2)cc1 [Compound 425] : IC50 beneath 80 nM, strictly?
Result block: False

Query block: Does the reported IC50 of the following compound sit strictly below 80 nM? c1ccc(-n2ncc3c(N4CCOCC4)nc(-c4ccc5sccc5c4)nc32)cc1 [Compound 105]
Result block: False

Query block: In plain terms, does O=C(NCCc1ccccc1)Nc1ccc(-c2nc(N3CCOCC3)c3cnn(C4CCN(Cc5ccccc5)CC4)c3n2)cc1 [Compound 259] come in under 80 nM for IC50?
Result block: False

Query block: # check: IC50 < 80 nM for OCCCN1CCC(n2ncc3c(N4CCOCC4)nc(-c4ccc5[nH]ccc5c4)nc32)CC1 [Compound 497]
Result block: False

Query block: Take the compound CNC(=O)Nc1ccc(-c2nc(N3CCOCC3)c3cnn(C4CCN(C(=O)c5cccnc5)CC4)c3n2)cc1 [Compound 219] and say whether its IC50 is less than 80 nM.
Result block: False

Query block: Is the reported IC50 for CC(C)C(=O)N1CCC(n2ncc3c(N4CCOCC4)nc(-c4ccc(NC(=O)Nc5ccncc5)cc4)nc32)CC1 [Compound 829] strictly below 80 nM?
Result block: True

Query block: IC50 under 80 nM? Item: COC(=O)Nc1ccc(-c2nc(N3CCOCC3)c3cnn(C4CCN(C(=O)OC(C)(C)C)CC4)c3n2)cc1 [Compound 772]
Result block: False

Query block: Here's an entry: CNC(=O)Nc1ccc(-c2nc(N3CCOCC3)c3cnn(C4CCN(C(=O)c5ccc(Cl)nc5)CC4)c3n2)cc1 [Example 424] . Is its IC50 below 80 nM?
Result block: False

Query block: Hello, is IC50 of the following compound strictly smaller than 80 nM? CNC(=O)Nc1ccc(-c2nc(N3CCOCC3)c3cnn(C4CCN(Cc5ccc(Br)nc5)CC4)c3n2)cc1 [Compound 634]
Result block: True

Query block: Threshold test, IC50 < 80 nM: CNC(=O)Nc1ccc(-c2nc(N3CCOCC3)c3cnn(C4CCN(Cc5ccco5)CC4)c3n2)cc1 [Example 402]
Result block: True

Query block: Problem: For the compound O=C(Nc1ccccc1)Nc1ccc(-c2nc(N3CCOCC3)c3cnn(C4CCNCC4)c3n2)cc1 [Compound 777] , is IC50 under 80 nM?
Result block: True

Query block: IC50 strictly < 80 nM for this compound? c1ccc(CN2CCC(n3ncc4c(N5CCOCC5)nc(-c5cnc6ccccc6c5)nc43)CC2)cc1 [Compound 230]
Result block: False

Query block: Given C=CCN1CCC(n2ncc3c(N4CCOCC4)nc(-c4ccc(NC(=O)NC)cc4)nc32)CC1 [Compound 799] , is recorded IC50 strictly lower than 80 nM?
Result block: True

Query block: Report whether reported IC50 is lower than 80 nM (strictly) for COC(=O)Nc1ccc(-c2nc(N3CCOCC3)c3cnn(C4CCN(CC(N)=O)CC4)c3n2)cc1 [Compound 700]
Result block: False

Query block: Hi there! Is IC50 for CC(=O)Nc1ccc(-c2nc(N3CCOCC3)c3cnn(C4CCN(Cc5cccnc5)CC4)c3n2)cc1 [Example 158] below 80 nM, do you know?
Result block: False

Query block: # check: IC50 < 80 nM for NCc1cccc(-c2nc(N3CCOCC3)c3cnn(-c4ccccc4)c3n2)c1 [Compound 144]
Result block: False

Query block: hey, is IC50 for COC(=O)N1CCC(n2ncc3c(N4CCOC(C)C4)nc(-c4ccc(NC(=O)NCCF)cc4)nc32)CC1 (stereo not drawn) [Compound 844] lower than 80 nM or not?
Result block: False

###

Target: PI3K (Homo sapiens, UniProt P42336)
Assay: Fluorescence polarization assay for PI3K;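 also: PI3K kinase reaction on PIP2 with ATP, 30-60 min, product sensed by GST-GRP with red probe in fluorescence polarization (mP), controls without enzyme and at zero time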
Assay type: biochemical
Conditions: PI3Kα; read-out: PI3Kα IC50
pIC50: −log10 of the molar value.
We use 7 as the dividing line for pIC50: on or above the line is y, below is n.

Query block: Does pIC50 meet or surpass 7 for O=C(Nc1ccc(-c2nc(N3CCOCC3)c3cnn(C4CCN(CC(F)(F)F)CC4)c3n2)cc1)NC1CC1 ?
Result block: n

Query block: Say whether COC(=O)Nc1ccc(-c2nc(N3CCOCC3)c3cnn(C4CCN(Cc5ccc(F)cc5)CC4)c3n2)cc1 [Compound 450] shows pIC50 of 7 or more.
Result block: n

Query block: Entry CC(C)OC(=O)N1CCC(n2ncc3c(N4CCOCC4)nc(-c4ccc(NC(=O)Nc5ccccc5)cc4)nc32)CC1 : is its pIC50 no less than 7?
Result block: y

Query block: Could you tell me if the measured pIC50 of NC(=O)Nc1ccc(-c2nc(N3CCOCC3)c3cnn(C4CCN(C(=O)c5cccnc5)CC4)c3n2)cc1 [Compound 546] reaches 7 or more?
Result block: n

Query block: Please check the record CCCNC(=O)Nc1ccc(-c2nc(N3CCOCC3)c3cnn(C4CCN(Cc5ccccc5)CC4)c3n2)cc1 [Compound 500] and state if its pIC50 is at or above 7.
Result block: n

Query block: Entry O=C(NO)Nc1ccc(-c2nc(N3CCOCC3)c3cnn(C4CCN(Cc5ccccc5)CC4)c3n2)cc1 [Compound 310] : is its pIC50 no less than 7?
Result block: n

Query block: I'd appreciate it if you could say whether COC(=O)Nc1ccc(-c2nc(N3CCOCC3)c3cnn(C4CCN(C(=O)c5ccc(F)cc5F)CC4)c3n2)cc1 [Compound 693] has pIC50 at least equal to 7.
Result block: n

Query block: Decide: pIC50 of CNC(=S)Nc1ccc(-c2nc(N3CCOCC3)c3cnn(C4CCN(C(=O)OC(C)C)CC4)c3n2)cc1 >= 7?
Result block: n

Query block: Could you tell me if the measured pIC50 of CCOC(=O)N1CCC(n2ncc3c(N4CCOCC4)nc(-c4ccc(NC(=O)NCCF)cc4)nc32)CC1 reaches 7 or more?
Result block: n

Query block: Answer whether pIC50 of CCCNC(=O)Nc1ccc(-c2nc(N3CCOCC3)c3cnn(C4CCN(Cc5ccccc5)CC4)c3n2)cc1 [Example 254] is greater than or equal to 7.
Result block: n

Query block: API: above_or_equal(metric=pIC50, cutoff=7) for item CNC(=O)Nc1ccc(-c2nc(N3CCOCC3)c3cnn(C4CCN(C(=O)c5cccc(Cl)c5)CC4)c3n2)cc1 [Compound 604]
Result block: y

Query block: hey, is pIC50 for this one >= 7? O=C(Nc1cccnc1)N1CCC(n2ncc3c(N4CCOCC4)nc(-c4ccc5[nH]ccc5c4)nc32)CC1
Result block: n
